Subject of test: PE-labeled human PD-L1-Ig binding to Jurkat cell line over-expressing human PD-1 (Jurkat-PD-1) (Homo sapiens, UniProt Q15116)
Construct: expressed in transfected cells; host or cells: Jurkat
Sequence (Q15116 25-288): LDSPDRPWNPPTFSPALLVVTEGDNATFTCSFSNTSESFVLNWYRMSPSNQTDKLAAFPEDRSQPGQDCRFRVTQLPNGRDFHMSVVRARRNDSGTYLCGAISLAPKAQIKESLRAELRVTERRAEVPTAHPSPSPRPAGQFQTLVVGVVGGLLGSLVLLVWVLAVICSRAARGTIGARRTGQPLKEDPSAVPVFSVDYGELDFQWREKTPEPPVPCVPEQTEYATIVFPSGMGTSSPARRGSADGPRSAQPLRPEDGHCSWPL
Experiment description: Jurkat-PD-1 Cell Binding High-Content Screening Assay (CBA): Method 1
Test context: Jurkat-hPD-1 cells, PE-labeled PD-L1-Ig 20 nM final; read-out: Jurkat HPDL1 PD1 IC50 (uM) (Method 1)
Bridge positions count the residues as written; N and C are the ends. Square brackets hold non-standard residues; d marks the D form. Peptide text beside a SMILES is read from it. ξ: configuration not given here. Bip = N[C@@H](Cc1ccc(-c2ccccc2)cc1)C(=O)O; Thr(3ξ) = CC(O)[C@H](N)C(=O)O; Dap(Me) = CNC[C@H](N)C(=O)O; NMeA = CN[C@@H](C)C(=O)O; Orn = NCCC[C@H](N)C(=O)O; Dab = NCC[C@H](N)C(=O)O
Observation type: IC50 (µM)
Field format: number, assumed µM, no unit text.

The cases that follow already have their IC50 on record.
CC(C)C[C@@H]1NC(=O)[C@H](CCCN)NC(=O)[C@@H](CC(C)C)NC(=O)[C@H](C)N(C)C(=O)[C@H](CCC(=O)O)NC(=O)[C@H](Cc2ccc(-c3ccccc3)cc2)NC(=O)[C@H](C(C)C)NC(=O)[C@H](Cc2c[nH]c3ccccc23)NC(=O)[C@H](CC(=O)O)NC(=O)[C@H](Cc2ccc(O)cc2)NC(=O)[C@H](CC(N)=O)NC(=O)CSC[C@@H](C(=O)N[C@@H](C)C(N)=O)NC(=O)[C@H](CO)NC(=O)[C@H](C(C)C)NC1=O [Compound 1240] ({CH2CO}-NYDWV[Bip]E[NMeA][dL][Orn]LVSCA-NH2; thioether N-14): 0.04
CC(C)C[C@@H]1NC(=O)[C@H](CCCNC(=N)N)NC(=O)[C@@H](CC(C)C)NC(=O)[C@H](C)N(C)C(=O)[C@H](CCCNC(=N)N)NC(=O)[C@H](Cc2ccc(-c3ccccc3)cc2)NC(=O)[C@H](C(C)C)NC(=O)[C@H](Cc2c[nH]c3ccccc23)NC(=O)[C@H](CC(=O)O)NC(=O)[C@H](Cc2ccc(O)cc2)NC(=O)[C@H](Cc2ccccc2)NC(=O)CSC[C@@H](C(=O)NCC(N)=O)NC(=O)[C@H](CO)NC(=O)[C@H](C(C)C)NC1=O [Compound 1017] ({CH2CO}-FYDWV[Bip]R[NMeA][dL]RLVSCG-NH2; thioether N-14): 0.04
CC(C)C[C@@H]1NC(=O)[C@H](Cc2c[nH]c3ccccc23)NC(=O)[C@H](CC(=O)O)NC(=O)[C@H](Cc2ccc(O)cc2)NC(=O)[C@H](Cc2ccccc2)NC(=O)CSC[C@@H](C(=O)N[C@@H](C)C(N)=O)NC(=O)[C@H](CO)NC(=O)[C@H](C(C)C)NC(=O)[C@H](CC(C)C)NC(=O)[C@H](CC(N)=O)NC(=O)[C@@H](CCCNC(=N)N)NC(=O)[C@H](C)N(C)C(=O)[C@H](C(C)C)NC(=O)[C@H](Cc2ccc(-c3ccccc3)cc2)NC1=O [Compound 1804] ({CH2CO}-FYDWL[Bip]V[NMeA][dR]NLVSCA-NH2; thioether N-14): 0.21

Shift focus to the following entry.
Task: Tell me the measured IC50 of CNC[C@@H]1NC(=O)CSC[C@@H](C(=O)N[C@@H](C)C(N)=O)NC(=O)[C@H](C(C)O)NC(=O)[C@H](C(C)C)NC(=O)[C@H](CC(C)C)NC(=O)[C@H](CCN)NC(=O)[C@@H](CC(C)C)NC(=O)[C@H](C)N(C)C(=O)[C@H](C(C)C)NC(=O)[C@H](Cc2ccc(-c3ccccc3)cc2)NC(=O)[C@H](C(C)C)NC(=O)[C@H](Cc2c[nH]c3ccccc23)NC(=O)[C@H](CC(=O)O)NC(=O)[C@H](Cc2ccc(O)cc2)NC1=O (stereo partly drawn) [Compound 2041] ({CH2CO}-[Dap(Me)]YDWV[Bip]V[NMeA][dL][Dab]LV[Thr(3ξ)]CA-NH2; thioether N-14) , please.
Output: 0.02
